experiment: Metabolic stability in human liver microsomes at 1 umol/L after 20 mins by HPLC assessed per mg of protein; format: ADME, Microsome; conditions: read-out: Stability
property name: remaining at 20 min, 1 µM (%)
Just the number in %, nothing appended.

Illustrative cases are given below, each with its answer.
O=C(NCCNC(=O)c1cn(-c2ccccc2)nc1C(F)(F)F)c1ccc(Cl)nc1	2.2
CCOc1ccc(C(=O)NCCNC(=O)c2cn(-c3ccccc3)nc2C)cc1	5

Reported remaining at 20 min, 1 µM for `CCOc1ccc(C(=O)NCCNC(=O)c2cn(-c3ccc(Cl)cc3)nc2C(F)(F)F)cc1` : what is it?
4.5

Reported remaining at 20 min, 1 µM for `CCOc1ccc(C(=O)NCCNC(=O)c2cn(C3CCCCC3)nc2C(F)(F)F)cc1` : what is it?
8.7

Reported remaining at 20 min, 1 µM for `CCOc1ccc(C(=O)NCCNC(=O)c2cn(-c3ccc(OCC)cc3)nc2C(F)(F)F)cc1` : what is it?
7.5

Reported remaining at 20 min, 1 µM for `CCOc1ccc(C(=O)NCCNC(=O)c2nc(-c3ccccc3)c(Cc3ccccc3)s2)cc1` : what is it?
10

====

assay: Metabolic stability in rat liver microsomes at 1 umol/L after 20 mins by HPLC assessed per mg of protein; type: ADME, Microsome; conditions: read-out: Stability
Labelling field: enter Met if recorded remaining at 20 min, 1 µM is less than 3%. Enter Not met if it equals or exceeds that cut-off.

For orientation, consider the following solved cases.
CCOc1ccc(C(=O)NCCNC(=O)c2cn(-c3ccccn3)nc2C(F)(F)F)cc1	Not met
CCOc1ccc(C(=O)NCCNC(=O)c2nn(-c3ccccc3)cc2C)cc1	Not met
O=C(NCCNC(=O)c1cn(-c2ccccc2)nc1C(F)(F)F)c1ccc(OCC(F)(F)F)nc1	Met
CCOc1ccc(C(=O)NCCNC(=O)c2cn(C3CCCCC3)nc2C(F)(F)F)cc1	Not met
CCOc1cc(C)c(C(=O)CCC(=O)Nc2nc(-c3ccccc3)c(Cc3ccccc3)s2)cc1OCC	Not met
CCOc1ccc(C(=O)NCCNC(=O)c2cn(-c3ccccc3)nc2C(F)(F)F)cc1	Not met

Bench note: check whether `O=C(NCCNC(=O)c1cn(-c2ccccc2)nc1C(F)(F)F)c1ccc(Cl)nc1` shows remaining at 20 min, 1 µM below 3%
Met

Bench note: check whether `O=C(NCCNC(=O)c1cn(-c2ccccc2)nc1C(F)(F)F)c1ccc(Cl)cn1` shows remaining at 20 min, 1 µM below 3%
Met

Bench note: check whether `CCOc1ccc(C(=O)NCCNC(=O)c2cn(-c3ccccc3)nc2C(F)(F)F)cn1` shows remaining at 20 min, 1 µM below 3%
Not met

====

test: Metabolic stability in rat liver microsomes at 1 umol/L after 20 mins by HPLC assessed per mg of protein; type: ADME, Microsome; conditions: read-out: Stability
# remaining at 20 min, 1 µM listing for each entry below
Just the number in %, nothing appended.

Illustrative cases are given below, each with its answer.
CCOc1ccc(C(=O)NCCNC(=O)c2cn(-c3ccc(OCC)cc3)nc2C(F)(F)F)cc1	8.7
O=C(NCCNC(=O)c1cn(-c2ccccc2)nc1C(F)(F)F)c1ccc(-n2cccn2)cc1	6.5
CCOc1ccc(C(=O)NCCNC(=O)c2cn(-c3ccccc3O)nc2C(F)(F)F)cc1	18

Next:
Reported remaining at 20 min, 1 µM for `CCOc1ccc(C(=O)NCCNC(=O)c2nc(-c3ccccc3)c(Cc3ccccc3)s2)cc1` : what is it?
14

====

experiment: Metabolic stability in mouse liver microsomes at 1 umol/L after 20 mins by HPLC assessed per mg of protein; type: ADME, Microsome; details: read-out: Stability
property name: remaining at 20 min, 1 µM
Kindly report the value followed by its unit.

Illustrative cases are given below, each with its answer.
CCOc1ccc(C(=O)NCCNC(=O)c2nc(-c3ccccc3)c(Cc3ccccc3)s2)cc1	17%
CCOc1ccc(C(=O)NCCNC(=O)c2cn(-c3ccccc3)nc2C(F)(F)F)cc1	7%

Next:
Reported remaining at 20 min, 1 µM for `CCOc1ccc(C(=O)NCCNC(=O)c2cn(-c3cccc(OCC)c3)nc2C(F)(F)F)cc1` : what is it?
6.5%

====

# remaining at 20 min, 1 µM listing for each entry below
assay: Metabolic stability in human liver microsomes at 1 umol/L after 20 mins by HPLC assessed per mg of protein; type: ADME, Microsome; conditions: read-out: Stability
Just the number in %, nothing appended.

Illustrative cases are given below, each with its answer.
CCOc1ccc(C(=O)NCCNC(=O)c2cn(-c3ccccn3)nc2C(F)(F)F)cc1	14
O=C(NCCNC(=O)c1cn(-c2ccccc2)nc1C(F)(F)F)c1ccc(-n2cccn2)cc1	5.9
CCOc1ccc(C(=O)NCCNC(=O)c2cn(-c3ccccc3)nc2C(F)(F)F)cc1	9
CCOc1cc(C)c(C(=O)CCC(=O)Nc2nc(-c3ccccc3)c(Cc3ccccc3)s2)cc1OCC	13
CCOc1ccc(C(=O)NCCNC(=O)c2cn(-c3cccc(OCC)c3)nc2C(F)(F)F)cc1	7.4
CCOc1ccc(C(=O)NCCNC(=O)c2cn(-c3ccccc3O)nc2C(F)(F)F)cc1	5.7
CCOc1cccc(C(=O)NCCNC(=O)c2cn(-c3ccccc3)nc2C(F)(F)F)c1	14
CCOc1ccc(C(=O)NCCNC(=O)c2cn(-c3ccccc3)nc2C(F)(F)F)cn1	5.1
CCOc1ccc(C(=O)NCCNC(=O)c2nn(-c3ccccc3)cc2C)cc1	12
CCOc1ccc(C(=O)NCCNC(=O)c2cn(Cc3ccccc3)nc2C(F)(F)F)cc1	5.5

Reported remaining at 20 min, 1 µM for `O=C(NCCNC(=O)c1cn(-c2ccccc2)nc1C(F)(F)F)c1ccc(OCC(F)(F)F)nc1` : what is it?
2.1

Reported remaining at 20 min, 1 µM for `O=C(NCCNC(=O)c1cn(-c2ccccc2)nc1C(F)(F)F)c1ccc(Cl)cn1` : what is it?
4.8

====

# remaining at 20 min, 1 µM listing for each entry below
experiment: Metabolic stability in rat liver microsomes at 1 umol/L after 20 mins by HPLC assessed per mg of protein; type: ADME, Microsome; settings: read-out: Stability
Just the number in %, nothing appended.

CCOc1ccc(C(=O)NCCNC(=O)c2cn(Cc3ccccc3)nc2C(F)(F)F)cc1	18
CCOc1cccc(C(=O)NCCNC(=O)c2cn(-c3ccccc3)nc2C(F)(F)F)c1	8.3
CCOc1ccc(C(=O)NCCNC(=O)c2cn(-c3ccc(Cl)cc3)nc2C(F)(F)F)cc1	7.2
CCOc1ccc(C(=O)NCCNC(=O)c2cn(-c3ccccc3)nc2C)cc1	5.8

Next:
Reported remaining at 20 min, 1 µM for `CCOc1ccc(C(=O)NCCNC(=O)c2cn(-c3cccc(OCC)c3)nc2C(F)(F)F)cc1` : what is it?
7.1
